experiment: Components of the Cytosolic LPS Sensing Pathway: Gene Identification via Genome-wide siRNA Screen; details: RAW264.7 macrophages, IL-1a HTRF, actives lie on both sides, screened at 100 nM (by protocol), cells primed 5 h with Pam3CSK4 first
Screen size: about 53,000 sequences; about 3,700 (7%) were called active.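 Rule for the calls: active = gene knockdowns whose robust z-score for IL-1 alpha signal is at least 2 or at most -2, so actives lie on both sides; inactive = the rest.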 The sample as a whole holds a higher share of actives than the screen did.
// classify into active, inactive

# count of solved cases: 3
{"columns": ["Residue Codes", "Category"],
 "data": [
  ["GUACCAGAAGUGAGUUCAGTT against Leap2", "active"],
  ["CGCCUUAUAAUAUACCUAUTT against Clmp", "inactive"],
  ["GAUCUUAGCUGUGUGUGUGTT against Pf4", "active"]
]}

Query: recorded result category for GGAGGCUCUACUUUUGUAGTT against Olfr611 in this test
active

Status in this test for GGCUCAACGGGAUUACUUUTT against Pgd ?
inactive

This collection of values is drawn from PubChem BioAssay AID1508600.
